The measurements presented in this section are drawn from patent US10251876B2.

Experiment: Pharmacokinetics of single administration in solid tumour subjects
Assay type: in vivo
Details: human, plasma; single oral administration; read-out: half-life period (t1/2)
readout type: half-life

Challenge: What measured half-life goes with COc1cc2c(Oc3ccc4[nH]c(C)cc4c3F)ccnc2cc1OCC1(N)CC1 ?
Response given: 80 to 100 h

---

Assay: Pharmacokinetics of single administration in solid tumour subjects
Format: in vivo
Conditions: human, plasma; single oral administration, 12 mg/person, n = 11, mean
readout type: MRT (h)
One number for each entry, in h.

Challenge: What measured MRT goes with COc1cc2c(Oc3ccc4[nH]c(C)cc4c3F)ccnc2cc1OCC1(N)CC1 ?
Response given: 162

---

Test: Pharmacokinetics of single administration in solid tumour subjects
Assay type: in vivo
Settings: human, plasma; single oral administration, 16 mg/person, n = 4, mean
readout type: AUC(0-inf) (ng·h/mL)
Give bare numbers, in ng·h/mL.

Challenge: What measured AUC(0-inf) goes with COc1cc2c(Oc3ccc4[nH]c(C)cc4c3F)ccnc2cc1OCC1(N)CC1 ?
Response given: 1720

---

Assay: Pharmacokinetics of continuous administration (2 weeks, rest 1 week) in solid tumour subjects
Assay type: in vivo
Details: human, plasma, oral, 16 mg/person, n = 3, average (RSD %)
Experimental: All the solid tumour subjects participating in the tolerance research in Example 3 were performed a monitor of plasma concentration to evaluate pharmacokinetic parameters of the capsule of Compound I dihydrochloride. • (1) Pharmacokinetics of Single Administration The qualified subjects took the drug once and performed pharmacokinetic monitor of single administration. After subjecting to at least 7 days of a washout period, pharmacokinetic studies of continuous administration were performed. […]
readout type: Cmax (ng/mL)
One number for each entry, in ng/mL.

Challenge: What measured Cmax goes with COc1cc2c(Oc3ccc4[nH]c(C)cc4c3F)ccnc2cc1OCC1(N)CC1 [Compound I] ?
Response given: 93.1

---

Assay: Pharmacokinetics of single administration in solid tumour subjects
Format: in vivo
Details: human, plasma; single oral administration, 16 mg/person, n = 4, mean
Method: All the solid tumour subjects participating in the tolerance research in Example 3 were performed a monitor of plasma concentration to evaluate pharmacokinetic parameters of the capsule of Compound I dihydrochloride. • (1) Pharmacokinetics of Single Administration After beginning the tests, the qualified subjects took the capsule of Compound I dihydrochloride once and performed pharmacokinetic studies of single administration.
readout type: Tmax (h)
Answers are plain numbers, in h.

Challenge: What measured Tmax goes with COc1cc2c(Oc3ccc4[nH]c(C)cc4c3F)ccnc2cc1OCC1(N)CC1 [Compound I] ?
Response given: 10

---

Assay: Pharmacokinetics of single administration in solid tumour subjects
Assay type: in vivo
Details: human, plasma; single oral administration, 12 mg/person, n = 11, mean; read-out: t1/2 (converted)
readout type: half-life
The reply should consist of the numeric value with the unit placed after it.

Challenge: What measured half-life goes with COc1cc2c(Oc3ccc4[nH]c(C)cc4c3F)ccnc2cc1OCC1(N)CC1 [Compound I] ?
Response given: 92 h

---

Test: Pharmacokinetics of single administration in solid tumour subjects
Format: in vivo
Details: human, plasma; single oral administration, 12 mg/person, n = 11, mean
readout type: Cmax (ng/mL)
Numbers only, in ng/mL.

Challenge: What measured Cmax goes with COc1cc2c(Oc3ccc4[nH]c(C)cc4c3F)ccnc2cc1OCC1(N)CC1 ?
Response given: 11.3

---

Experiment: Pharmacokinetics of single administration in solid tumour subjects
Type: in vivo
Settings: human, plasma; single oral administration, 10 mg/person, n = 4, mean
readout type: AUC(0-inf) (ng·h/mL)
Answers are plain numbers, in ng·h/mL.

Challenge: What measured AUC(0-inf) goes with COc1cc2c(Oc3ccc4[nH]c(C)cc4c3F)ccnc2cc1OCC1(N)CC1 [Compound I] ?
Response given: 570

---

Experiment: Pharmacokinetics of single administration in solid tumour subjects
Format: in vivo
Conditions: human, plasma; single oral administration, 10 mg/person, n = 4, mean
Protocol: All the solid tumour subjects participating in the tolerance research in Example 3 were performed a monitor of plasma concentration to evaluate pharmacokinetic parameters of the capsule of Compound I dihydrochloride. • (1) Pharmacokinetics of Single Administration After beginning the tests, the qualified subjects took the capsule of Compound I dihydrochloride once and performed pharmacokinetic studies of single administration.
readout type: AUC(0-t) (ng·h/mL)
Numbers only, in ng·h/mL.

Challenge: What measured AUC(0-t) goes with COc1cc2c(Oc3ccc4[nH]c(C)cc4c3F)ccnc2cc1OCC1(N)CC1 ?
Response given: 327

---

Assay: Pharmacokinetics of single administration in solid tumour subjects
Assay type: in vivo
Settings: human, plasma; single oral administration, 12 mg/person, n = 11, mean
readout type: AUC(0-inf) (ng·h/mL)
Numbers only, in ng·h/mL.

Challenge: What measured AUC(0-inf) goes with COc1cc2c(Oc3ccc4[nH]c(C)cc4c3F)ccnc2cc1OCC1(N)CC1 ?
Response given: 1160

---

Assay: Pharmacokinetics of single administration in solid tumour subjects
Assay type: in vivo
Details: human, plasma; single oral administration, 10 mg/person, n = 4, mean
readout type: MRT
The reply should consist of the numeric value with the unit placed after it.

Challenge: What measured MRT goes with COc1cc2c(Oc3ccc4[nH]c(C)cc4c3F)ccnc2cc1OCC1(N)CC1 [Compound I] ?
Response given: 142 h

---

Test: Pharmacokinetics of continuous administration (2 weeks, rest 1 week) in solid tumour subjects
Format: in vivo
Conditions: human, plasma, oral, 12 mg/person, n = 15, average (RSD %)
readout type: Cmax (ng/mL)
One number for each entry, in ng/mL.

Challenge: What measured Cmax goes with COc1cc2c(Oc3ccc4[nH]c(C)cc4c3F)ccnc2cc1OCC1(N)CC1 ?
Response given: 67

---

Assay: Pharmacokinetics of single administration in solid tumour subjects
Assay type: in vivo
Settings: human, plasma; single oral administration, 16 mg/person, n = 4, mean
readout type: Cmax

Challenge: What measured Cmax goes with COc1cc2c(Oc3ccc4[nH]c(C)cc4c3F)ccnc2cc1OCC1(N)CC1 ?
Response given: 0.0161 µg/mL

---

Experiment: Pharmacokinetics of single administration in solid tumour subjects
Format: in vivo
Conditions: human, plasma; single oral administration, 12 mg/person, n = 11, mean
readout type: Tmax (h)
Numbers only, in h.

Challenge: What measured Tmax goes with COc1cc2c(Oc3ccc4[nH]c(C)cc4c3F)ccnc2cc1OCC1(N)CC1 ?
Response given: 8.73
